- measuredTarget: T1, NativeRPtag(large)_with_Tags_and_Cys (Thermoanaerobacter tengcongensis)
- T1 construct: Unlabeled in anisotropy assays; coupled through the engineered N-terminal Cys to SulfoLink agarose or maleimide plates in column, pull-down and ELISA assays
- T1 chain: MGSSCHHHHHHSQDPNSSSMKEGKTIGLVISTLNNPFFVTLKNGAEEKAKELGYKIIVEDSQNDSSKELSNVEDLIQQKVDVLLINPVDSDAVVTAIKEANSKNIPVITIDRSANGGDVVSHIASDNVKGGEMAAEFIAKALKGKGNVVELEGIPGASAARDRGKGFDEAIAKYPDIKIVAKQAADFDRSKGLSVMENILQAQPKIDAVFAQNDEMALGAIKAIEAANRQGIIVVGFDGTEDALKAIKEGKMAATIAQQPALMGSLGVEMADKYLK
- assayOverview: fluorescence anisotropy, competitor chase
No end group written: not given here. *: point of attachment. RhodamineB = CCN(CC)c1ccc2c(-c3ccccc3C(=O)*)c3ccc(=[N+](CC)CC)cc-3oc2c1
hey, just use met if measured koff is less than 0.0001 s⁻¹, otherwise not met

- binder: "RhodamineB-ELKLIT [RPtag(small) Nd10, Cd5]"
  group: "not met"
- binder: "RhodamineB-IANFIPAELKLITKANVQ [RPtag(small) Nd3, p5a, e18a]"
  group: "not met"
- binder: "RhodamineB-KIANFIPAELKLITK [RPtag(small) Nd2, Cd4, p5a]"
  group: "not met"
- binder: "RhodamineB-GAKIPNFIPAELKLITKENVQ [RPtag(small) e2a]"
  group: "met"
- binder: "RhodamineB-KIPNFIPAELKLITKANVQ [RPtag(small) Nd2, e18a]"
  group: "not met"
- binder: "RhodamineB-GEKIPNFIPAELKLITKANVQ [RPtag(small) e18a]"
  group: "not met"
- binder: "RhodamineB-GEKIPNFIPAELKL [RPtag(small) Cd7]"
  group: "not met"
- binder: "RhodamineB-KIANFIPAELKLITKANAA [RPtag(small) Nd2, p5a, e18a, v20a, q21a]"
  group: "not met"
- binder: "RhodamineB-ELKLITKA [RPtag(small) Nd10, Cd3, e18a]"
  group: "not met"
- binder: "RhodamineB-PAELKLITKENVQ [RPtag(small) Nd8]"
  group: "not met"
- binder: "RhodamineB-GEKIPNFAPAELKLITKENVQ [RPtag(small) i8a]"
  group: "not met"
- binder: "RhodamineB-IPAELKLITKENVQ [RPtag(small) Nd7]"
  group: "not met"
- binder: "RhodamineB-KIANFIPAELKLITKE [RPtag(small) Nd2, Cd3, p5a]"
  group: "not met"
- binder: "RhodamineB-GEKIPNFIPAEAKLITKENVQ [RPtag(small) l12a]"
  group: "not met"
- binder: "RhodamineB-GEKIPNFIPAELKLITKENVA (built here from the native peptide with the stated change) [RPtag(small) q21a]"
  group: "met"
- binder: "RhodamineB-PAELKLITKE [RPtag(small) Nd8, Cd3]"
  group: "not met"
- binder: "RhodamineB-PAELKLITKA [RPtag(small) Nd8, Cd3, e18a]"
  group: "not met"
- binder: "RhodamineB-ELKLITKENVQ [RPtag(small) Nd10]"
  group: "not met"
- binder: "RhodamineB-GEKIPNFIAAELKLITKENVQ [RPtag(small) p9a]"
  group: "met"
- binder: "RhodamineB-AIANFIPAELKLITKENVQ [RPtag(small) Nd2, k3a, p5a]"
  group: "not met"
- binder: "RhodamineB-NFIPAELKLITKENVQ [RPtag(small) Nd5]"
  group: "not met"
- binder: "RhodamineB-GEAIPNFIPAELKLITKENVQ [RPtag(small) k3a]"
  group: "met"
- binder: "RhodamineB-GEKIPNFIPAALKLITKENVQ [RPtag(small) e11a]"
  group: "not met"
- binder: "RhodamineB-KLITKENVQ [RPtag(small) Nd12]"
  group: "not met"
- binder: "RhodamineB-GEKIPAFIPAELKLITKENVQ [RPtag(small) n6a]"
  group: "met"
- binder: "RhodamineB-RIANFIPAELKLITKANVQ [RPtag(small) Nd2, k3r, p5a, e18a]"
  group: "not met"
